Each entry below lists one item and its recorded pIC50 value.
TARGET_ENTITY: human NOX4 (Homo sapiens, UniProt Q9NPH5)
Construct: membrane fraction used
ASSAY_SUMMARY: Cell free membrane based in vitro NOX4 assay: H2O2 production by membranes expressing human NOX4, measured with Amplex Red
ASSAY_CONTEXT: class symbols
pIC50: −log10 of the molar value.

Cc1nn(C2CCC(F)(F)CC2)c2[nH]c(-c3c(F)cccc3F)c(O)c(=O)c12 [Example 137] : 7.00 to 7.30

Please turn your attention to the following entry.
Reading of pIC50 for COc1ccc(-c2[nH]c3c(c(C)nn3Cc3ccccc3)c(=O)c2O)c(F)c1 [Example 77] with human NOX4 (Homo sapiens, UniProt Q9NPH5): 6.82 to 7.00

* * *

TARGET_ENTITY: human NOX4 (Homo sapiens, UniProt Q9NPH5)
Construct: expressed in transfected cells; membrane fraction used
Sequence (Q9NPH5 1-578): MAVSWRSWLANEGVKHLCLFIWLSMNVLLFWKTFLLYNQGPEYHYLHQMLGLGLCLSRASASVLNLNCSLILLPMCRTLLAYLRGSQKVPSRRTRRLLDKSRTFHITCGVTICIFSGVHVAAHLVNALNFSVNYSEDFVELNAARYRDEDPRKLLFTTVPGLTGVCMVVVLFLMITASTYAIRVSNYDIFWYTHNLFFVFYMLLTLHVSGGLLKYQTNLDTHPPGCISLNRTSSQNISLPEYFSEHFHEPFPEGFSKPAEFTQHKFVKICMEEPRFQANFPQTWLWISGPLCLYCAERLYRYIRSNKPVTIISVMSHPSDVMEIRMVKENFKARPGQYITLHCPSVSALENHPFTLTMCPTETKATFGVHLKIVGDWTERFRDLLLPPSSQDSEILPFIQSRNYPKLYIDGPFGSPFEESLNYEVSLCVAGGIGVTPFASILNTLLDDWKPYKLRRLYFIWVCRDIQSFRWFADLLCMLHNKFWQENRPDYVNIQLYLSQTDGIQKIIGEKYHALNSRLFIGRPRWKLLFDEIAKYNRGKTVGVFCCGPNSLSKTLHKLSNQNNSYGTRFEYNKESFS
Sequence (P13498 1-195 partner): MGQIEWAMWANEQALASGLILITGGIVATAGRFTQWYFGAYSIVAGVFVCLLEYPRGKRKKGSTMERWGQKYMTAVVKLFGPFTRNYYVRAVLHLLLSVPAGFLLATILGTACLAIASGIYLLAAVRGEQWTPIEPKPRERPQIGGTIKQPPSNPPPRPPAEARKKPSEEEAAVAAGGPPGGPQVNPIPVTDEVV
ASSAY_SUMMARY: Cell free membrane based in vitro NOX4 assay: H2O2 production by membranes expressing human NOX4, measured with Amplex Red
Assay type: biochemical
ASSAY_CONTEXT: 1.0 μM compound, read-out: Percentage inhibition at 1.0 μM
TEST_READOUT: inhibition at 1 µM (%)

CCn1ncc2c(=O)c(O)c(-c3c(F)cccc3F)[nH]c21 : 99.1
CCc1nn(CCC(C)C)c2[nH]c(-c3c(F)cccc3F)c(O)c(=O)c12 : 100
COc1ccc(Cl)c(-c2[nH]c3c(c(C)nn3C)c(=O)c2O)c1 : 100
CCn1nc(C)c2c(=O)c(O)c(-c3ccccc3F)[nH]c21 : 70.8
Cn1nc(C(F)(F)F)c2c(=O)c(O)c(-c3cc(CNC(=O)C(C)(C)C)ccc3Cl)[nH]c21 : 74.8
CCc1nn(CC)c2[nH]c(-c3c(F)cccc3F)c(O)c(=O)c12 : 99.4
Cn1nc(C2CCN(S(C)(=O)=O)CC2)c2c(=O)c(O)c(-c3c(F)cccc3F)[nH]c21 : 80.1
Cc1nn(C)c2[nH]c(-c3ccc(F)cc3Cl)c(O)c(=O)c12 : 95
COCc1nn(C)c2[nH]c(-c3c(F)cccc3F)c(O)c(=O)c12 : 86.2
CCn1nc(C(F)F)c2c(=O)c(O)c(-c3c(F)cccc3F)[nH]c21 : 71.3
COCCOc1ccc(-c2[nH]c3c(c(C)nn3C)c(=O)c2O)c(Cl)c1 : 74.7
CCc1nn(CCN2CCN(C)CC2)c2[nH]c(-c3ccccc3Cl)c(O)c(=O)c12 : 99.9
